Biological target: T1, human ASGR-1 (human, UniProt P07306 1-291)
T1 construct: Stably expressed on CHO-S cells (CHO-S:huASGR-1); The method text says human or mouse ASGR-1 cells were used; also called huASGR-1; hASGR-1
T1 sequence: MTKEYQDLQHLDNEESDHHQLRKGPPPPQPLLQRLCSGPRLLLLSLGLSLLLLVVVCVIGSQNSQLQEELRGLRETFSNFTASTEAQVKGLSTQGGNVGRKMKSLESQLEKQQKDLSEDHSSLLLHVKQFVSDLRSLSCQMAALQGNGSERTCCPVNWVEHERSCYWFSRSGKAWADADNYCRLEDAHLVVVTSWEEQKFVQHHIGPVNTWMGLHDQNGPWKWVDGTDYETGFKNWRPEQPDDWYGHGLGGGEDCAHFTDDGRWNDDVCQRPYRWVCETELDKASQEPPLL
Test: FACS ligand blocking on CHO-S ASGR-1 cells; competitor biotinylated asialofetuin
testReadout: % Inhibition (%)
Write down the numeric answer in % and omit the unit.

1. 191G10 (antibody, V domains shown) VH: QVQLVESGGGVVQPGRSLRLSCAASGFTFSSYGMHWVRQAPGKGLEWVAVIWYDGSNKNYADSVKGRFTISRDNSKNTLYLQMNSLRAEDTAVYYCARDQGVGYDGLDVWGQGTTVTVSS VL: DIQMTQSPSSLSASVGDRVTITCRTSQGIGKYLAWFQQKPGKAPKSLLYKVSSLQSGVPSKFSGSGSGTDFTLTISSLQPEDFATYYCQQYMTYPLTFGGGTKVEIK
99

// switching to the query binder
The binder identified as 5E5 (antibody, V domains shown) VH: QVQLVESGGGVVQPGRSLRLSCAASGFTFSNYVMHWVRQAPGKGLEWVAVIWYDGSNKYYADSVKGRFTISRDNSKNTLYLQMNSLRAEDTAVYYCTREVYSSGWYDYGMDVWGQGTTVTVSS VL: DIQMTQSPSSLSASVGDRVTITCRASQGIRNDLGWYQQKPGKAPKRLIYAASSLQSGVPSRFSGSGSGTEFTLTISSLQPEDFATYYCLQHYSYPRTFGQGTKVEVK registered its % Inhibition at 95
